These entries and their values trace back to a melting point compilation (Tetko et al.; mined from patent text by program, amines drawn as free bases though some values may be those of a salt).

For each record, write down the corresponding melting point.

Exam item: Please indicate melting point recorded for Cc1c(F)cc(C(C)(C)C)c(O)c1-c1nc2cc(S(=O)(=O)C(F)(F)F)ccc2[nH]1
Marked response: 245 to 247 °C

Exam item: Please indicate melting point recorded for CC(CCC(=O)O)C1CCC2C3C(O)CC4CC(O[Si](C)(C)C(C)(C)C)CCC4(C)C3CC(O)C12C (stereo unspecified)
Marked response: 146 °C

Exam item: Please indicate melting point recorded for O=c1ccn(-c2cccc(C(F)(F)F)c2)nc1-c1ccnn1-c1cccc(F)c1
Marked response: 104 to 105 °C

Exam item: Please indicate melting point recorded for CC(C)CCSc1cc(C(=O)O)cc(S(=O)(=O)Cl)c1Oc1ccccc1
Marked response: 168 to 169 °C

Exam item: Please indicate melting point recorded for CN1CCN(c2cccc3c2C[C@H](NC(=O)c2ccc(N4CCCCC4)cc2)CC3)CC1
Marked response: 196 to 198 °C

Exam item: Please indicate melting point recorded for O=C(NC(=O)c1ccccc1Cl)Nc1ccc(F)c(C(F)(F)F)c1Cl
Marked response: 208 °C

Exam item: Please indicate melting point recorded for CCOC(=O)C(=CNC1CC1)C(=O)c1ccc(F)c(Cl)c1F
Marked response: 101 to 104 °C

Exam item: Please indicate melting point recorded for CSc1ccccc1C1C(=O)c2ccccc2C1=O
Marked response: 191 to 193 °C

Exam item: Please indicate melting point recorded for CCN1C(=O)C(O)=C(c2c(C)cc(C)cc2C)C1=O
Marked response: 168 °C

Exam item: Please indicate melting point recorded for COc1ccc(-c2ccc(C(=O)Nc3ccc4cc(CN5CCCC5)cnc4c3)cc2)cc1
Marked response: 202 to 204 °C

Exam item: Please indicate melting point recorded for Cc1c(N2CCN(C(C)C)CC2)nn2c(-c3ccnnc3)c(-c3ccc(F)cc3)nc2c1C
Marked response: 222 to 224 °C

Exam item: Please indicate melting point recorded for COC(=O)Nc1nc(-c2ccccc2)c(-c2nc3ccccc3c(=O)n2-c2ccccc2Cl)s1
Marked response: > 275 °C

Exam item: Please indicate melting point recorded for COC(=O)c1cc(OCC(=O)O)cc(C(=O)OC)c1[N+](=O)[O-]
Marked response: 151 to 152 °C

Exam item: Please indicate melting point recorded for O=S(=O)(Nc1ccc2c(OCc3ccc(-c4ccccc4)cc3Cl)cccc2c1)C(F)(F)F
Marked response: 131 to 134 °C

Exam item: Please indicate melting point recorded for O=C(NO)c1ccc(CNC(=O)c2[nH]c(-c3ccccc3)cc2-c2ccc([N+](=O)[O-])cc2)cc1
Marked response: 179 to 180 °C

Exam item: Please indicate melting point recorded for Cn1cc(C(=O)NCc2ccc(Cl)cc2)c(=O)c2ccoc21
Marked response: 197 to 205 °C

Exam item: Please indicate melting point recorded for CCCN1CCC(Cc2ccc3c(c2)c(Cc2ccc(C(=O)NS(=O)(=O)c4ccccc4C)cc2OC)cn3C)C1=O (stereo unspecified)
Marked response: 112 to 122 °C

Exam item: Please indicate melting point recorded for COc1ccc(CC(NC(c2ccccc2)c2ccccc2)P(O)O)cc1OC (stereo unspecified)
Marked response: 205 °C

Exam item: Please indicate melting point recorded for CC(C)n1nnc(-c2cnc3ccccn3c2=O)n1
Marked response: 146 to 148 °C

Exam item: Please indicate melting point recorded for CNS(=O)(=O)c1cc2c(c(C(=O)NCC3CCN(C)C3)c1)OCCO2 (stereo unspecified)
Marked response: 187 to 188 °C

Exam item: Please indicate melting point recorded for CCCCCCCCS(=O)(=O)ON=C(C#N)c1cccs1
Marked response: 77 to 82 °C

Exam item: Please indicate melting point recorded for N[C@H]1CCCC[C@@H]1Nc1ccnc2cc(Cl)ccc12
Marked response: 160 °C

Exam item: Please indicate melting point recorded for Cc1ccc(NC(=O)c2cccc(C(F)(F)F)c2)cc1-c1ccc2ncsc2c1
Marked response: 94 to 96 °C

Exam item: Please indicate melting point recorded for CNC(=S)NS(=O)(=O)c1cc2c(cc1C)OCC(NC(=O)c1cc(Cl)ccc1OC)C2 (stereo unspecified)
Marked response: 207 to 208 °C

Exam item: Please indicate melting point recorded for COc1cc(N(C)C)c(Cl)cc1C(=O)NCC1CN(Cc2ccc(C#N)cc2)CCO1 (stereo unspecified)
Marked response: 161 to 163 °C

Exam item: Please indicate melting point recorded for Cc1ccc(C(=O)Nc2c[nH]nc2C(=O)NCCO)cn1
Marked response: 233 to 235 °C

Exam item: Please indicate melting point recorded for CCC(=O)SCC(Cc1ccccc1)C(=O)Nc1cc(C)cc(C(=O)O)c1 (stereo unspecified)
Marked response: 151 to 153 °C

Exam item: Please indicate melting point recorded for CC(=O)OCC1OC(n2cc(C=O)c3c(F)cccc32)C(OC(C)=O)C(OC(C)=O)C1OC(C)=O (stereo unspecified)
Marked response: 190 to 192 °C

Exam item: Please indicate melting point recorded for CCCOc1ccc(/C=C/C(=O)N2CCOCC2)cc1-c1nc2c(c(C)nn2CCC)c(=O)[nH]1
Marked response: 156 to 157 °C

Exam item: Please indicate melting point recorded for CCOC(=O)c1cc(C(=O)C=CN(C)C)c(=O)[nH]c1C(=O)OCC
Marked response: 71 °C

Exam item: Please indicate melting point recorded for CC(C)Cc1cc(OCc2ccccc2)c2c(c1)OC(C)(C)CC2=O
Marked response: 77.5 to 78 °C
